Provenance of the data: ChEMBL document CHEMBL1122859

TEST SYSTEM: UniProt P32307
Sequence (P32307 whole entry): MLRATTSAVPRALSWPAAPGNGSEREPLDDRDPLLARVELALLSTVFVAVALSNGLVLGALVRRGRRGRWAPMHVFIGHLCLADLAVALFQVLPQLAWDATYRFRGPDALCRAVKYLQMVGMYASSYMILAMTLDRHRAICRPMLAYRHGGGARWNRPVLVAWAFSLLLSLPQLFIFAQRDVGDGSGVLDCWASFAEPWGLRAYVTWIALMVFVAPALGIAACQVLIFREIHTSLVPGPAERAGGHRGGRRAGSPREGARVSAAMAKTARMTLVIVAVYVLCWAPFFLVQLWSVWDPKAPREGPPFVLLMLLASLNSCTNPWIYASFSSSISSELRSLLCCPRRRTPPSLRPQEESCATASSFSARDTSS
PROTOCOL DESCRIPTION: Tested for inhibition of vasopressin-stimulated adenylate cyclase of medullary membranes of pig kidney.
Numbered stars: 1 amine (or outer) side, 2 acyl side, 3 side chain; on linkers, the order of the positions; unused ones are H or OH. Bridge positions count the residues as written; N and C are the ends. Square brackets hold non-standard residues; d marks the D form. Peptide text beside a SMILES is read from it. * marks the point of attachment. X1 = O=C(CC1(S[*:2])CCCCC1)[*:1]; NH(CH2)5NH2 = NCCCCCN*
REPORTED PROPERTY: Ki (nM)

CCOc1ccc(C[C@H]2NC(=O)CC3(CCCCC3)SSC[C@@H](C(=O)N[C@@H](CCCCN)C(N)=O)NC(=O)[C@H](CC(N)=O)NC(=O)[C@H](C(C)C)NC(=O)[C@H](Cc3ccccc3)NC2=O)cc1    5.8
CCOc1ccc(C[C@H]2NC(=O)CC3(CCCCC3)SSC[C@@H](C(=O)N3CCC[C@H]3C(=O)N[C@@H](CCCCN)C(N)=O)NC(=O)[C@H](CC(N)=O)NC(=O)[C@H](C(C)C)NC(=O)[C@H](Cc3ccccc3)NC2=O)cc1    9.4
CCOc1ccc(C[C@H]2NC(=O)CC3(CCCCC3)SSC[C@@H](C(=O)NCCCCCN)NC(=O)[C@H](CC(N)=O)NC(=O)[C@H](C(C)C)NC(=O)[C@H](Cc3ccccc3)NC2=O)cc1    6.8
CCOc1ccc(C[C@H]2NC(=O)CC3(CCCCC3)SSC[C@@H](C(=O)N3CCC[C@H]3C(=O)NCCCCCN)NC(=O)[C@H](CC(N)=O)NC(=O)[C@H](C(C)C)NC(=O)[C@H](Cc3ccccc3)NC2=O)cc1 ([dY](Et)FVNCP-{NH(CH2)5NH2}; linker N-5 via X1)    7.2
